Kindly supply the reported GI50 values for the records listed here.
Test system: HCC 2998
Assay: NCI tumour cell line growth inhibition, 48 h
Active and inactive are the calls of the source. Cut-off read from the data, not from the text of the source: active = GI50 up to about 1.1 µM and inactive = higher.

In: Which GI50 value belongs to `CCOC(=N)CC(=O)c1ccccc1` ?
Out: > 100 µM (inactive)

In: Also Cc1cc(C(=C2C=CC(=N)C=C2)c2ccc(N)cc2)ccc1N [FUCHSIN, BASIC] ?
Out: 3.23 µM (inactive)

In: Also `CC(=O)Nc1cc(N(CCOS(C)(=O)=O)CCOS(C)(=O)=O)ccc1N=O` ?
Out: > 100 µM (inactive)

In: Also CC(C)=CC(=O)C1c2cccc(O)c2C(=O)c2c(O)cc(C)cc21 (configuration not stated) ?
Out: 1.2 µM (inactive)

In: Also `COc1ccccc1N1C(=O)/C(=C/c2ccc(N(CCC#N)CCC#N)cc2C)N=C1c1cc([N+](=O)[O-])ccc1Cl` ?
Out: > 100 µM (inactive)

In: Also O=P1(c2ccccc2)C(c2ccccc2)CCC1c1ccccc1 (configuration not stated) ?
Out: > 100 µM (inactive)

In: Also `C=CCCCn1ccc2ccccc21` ?
Out: > 100 µM (inactive)

In: Also `c1ccc2c(c1)SCCc1cn[nH]c1-2` ?
Out: > 100 µM (inactive)

In: Also `O=C(O)C(F)(F)C(F)(F)C(F)(F)C(F)(F)C(F)(F)C(F)(F)C(F)(F)C(F)(F)F` ?
Out: 86.9 µM (inactive)

In: Also N#CC(C(=O)/C(=N/N)C(C#N)c1ccc(Cl)cc1)c1ccc(Cl)cc1 (configuration not stated) ?
Out: > 100 µM (inactive)

In: Also `Cc1cc(=O)nc(S(=O)(=O)NC(=S)Nc2ccc(Cl)cc2)[nH]1` ?
Out: > 100 µM (inactive)

In: Also `COc1ccc(/N=c2\ssc3c(=S)ssc23)cc1` ?
Out: 37.2 µM (inactive)

In: Also `CCN(CC)CCCNc1nc(=O)[nH]c(C)c1C(=O)Nc1ccc2c(c1)c1ccccc1n2CC` ?
Out: > 100 µM (inactive)

In: Also `CN1C(=O)C(=CNc2ccccc2[N+](=O)[O-])C(=O)N(C)C1=O` ?
Out: > 100 µM (inactive)

In: Also `CN(C)CCCNC(=O)CCNC(=O)c1cc(NC(=O)c2cc(NC(=O)c3cc(NC(=O)CCCNC(=O)c4cc(NC(=O)c5cc(NC(=O)c6nccn6C)cn5C)cn4C)cn3C)cn2C)cn1C` ?
Out: > 100 µM (inactive)

In: Also O=C1CC2(c3ccccc3)ON=C(c3ccccc3)N2c2ccccc2N1 (configuration not stated) ?
Out: 65 µM (inactive)

In: Also `COC(=O)NC(Nc1ccc(C)cc1)(C(F)(F)F)C(F)(F)F` ?
Out: > 100 µM (inactive)

In: Also `CCOC(=O)C(=O)NC12CC3CC(CC(C3)C1)C2` ?
Out: > 100 µM (inactive)

In: Also O=C1c2c(ccc3c2CCC3)CC1Cc1ccc2c(c1)CCC2 (configuration not stated) ?
Out: 34.3 µM (inactive)

In: Also COc1cccc(N2C(=O)CSC2c2cccc(Oc3ccccc3)c2)c1 (configuration not stated) ?
Out: 3.14 µM (inactive)

In: Also `CN(C)CCn1c(CO)nc2c1c(=O)n(C)c(=O)n2C` ?
Out: > 100 µM (inactive)

In: Also CCCCCCCCCCCCOP(=O)(O)OP(=O)(O)OCC1OC(n2cc(C)c(=O)[nH]c2=O)CC1O (configuration not stated) ?
Out: > 100 µM (inactive)
